system.under.test: T1, gp130-Fc fusion protein (human, UniProt P40189 23-619)
T1 construct: extracellular domain; not shown: Fc fragment of human IgG1
T1 sequence (looked up): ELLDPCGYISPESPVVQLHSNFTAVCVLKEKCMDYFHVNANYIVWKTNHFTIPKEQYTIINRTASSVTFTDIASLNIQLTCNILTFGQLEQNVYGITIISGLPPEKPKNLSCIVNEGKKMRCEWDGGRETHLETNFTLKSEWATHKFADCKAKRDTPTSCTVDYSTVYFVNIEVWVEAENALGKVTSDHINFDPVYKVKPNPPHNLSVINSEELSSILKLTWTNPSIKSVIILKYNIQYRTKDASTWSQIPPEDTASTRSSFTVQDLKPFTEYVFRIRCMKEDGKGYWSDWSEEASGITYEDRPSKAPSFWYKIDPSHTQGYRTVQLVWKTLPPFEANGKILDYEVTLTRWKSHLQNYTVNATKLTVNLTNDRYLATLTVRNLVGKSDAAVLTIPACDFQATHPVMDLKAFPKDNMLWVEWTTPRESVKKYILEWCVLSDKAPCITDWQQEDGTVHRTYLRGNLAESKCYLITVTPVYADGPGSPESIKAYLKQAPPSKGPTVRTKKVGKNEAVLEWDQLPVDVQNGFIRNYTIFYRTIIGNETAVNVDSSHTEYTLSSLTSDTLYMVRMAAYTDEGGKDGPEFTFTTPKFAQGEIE
procedure.details: competition ELISA: OSM-GST titrated against plate-bound wt OSM for gp130-Fc; mean
readout.label: IC50 (µg/mL)
Express it in µg/mL; write the number only.

binder: OSM-GST mutant G15A (ligand, Alanine mutant of m4; also called (8)G15A; 8 G15A; not shown: Its linker is left out) AAIGSCSKEYRVLLAQLQKQTDLMQDTSRLLDPYIRIQGLDVPKLREHCRERPGAFPSEETLRGLGRRGFLQTLNATLGCVLHRLADLEQRLPKAQDLERSGLNIEDLEKLQMARPNILGLRNNIYCMAQLLDNSDTAEPTKAGRGASQPPTPTPASDAFQRKLEGCRFLHGYHRFMHSVGRVFSKWGESPNRSRR
unit.text: µg/mL
IC50: 0.155

Request: If you can, please state the reported IC50 value of OSM-GST mutant Y10A (ligand, not shown: a dimerising Fc or GST; large carriers; small tags and cut ends, Alanine mutant of m4; also called (4)Y10A; 4 Y10A) AAIGSCSKEARVLLGQLQKQTDLMQDTSRLLDPYIRIQGLDVPKLREHCRERPGAFPSEETLRGLGRRGFLQTLNATLGCVLHRLADLEQRLPKAQDLERSGLNIEDLEKLQMARPNILGLRNNIYCMAQLLDNSDTAEPTKAGRGASQPPTPTPASDAFQRKLEGCRFLHGYHRFMHSVGRVFSKWGESPNRSRR .
Response: 0.223

Request: If you can, please state the reported IC50 value of OSM-GST mutant G120A (ligand, not shown: a dimerising Fc or GST; large carriers; small tags and cut ends, Alanine mutant of m4; also called (20)G120; 20 G120A) AAIGSCSKEYRVLLGQLQKQTDLMQDTSRLLDPYIRIQGLDVPKLREHCRERPGAFPSEETLRGLGRRGFLQTLNATLGCVLHRLADLEQRLPKAQDLERSGLNIEDLEKLQMARPNILALRNNIYCMAQLLDNSDTAEPTKAGRGASQPPTPTPASDAFQRKLEGCRFLHGYHRFMHSVGRVFSKWGESPNRSRR .
Response: 3.09

Request: If you can, please state the reported IC50 value of OSM-GST mutant K8A (ligand, not shown: a dimerising Fc or GST; large carriers; small tags and cut ends, Alanine mutant of m4; also called (2)K8A; 2 K8A) AAIGSCSAEYRVLLGQLQKQTDLMQDTSRLLDPYIRIQGLDVPKLREHCRERPGAFPSEETLRGLGRRGFLQTLNATLGCVLHRLADLEQRLPKAQDLERSGLNIEDLEKLQMARPNILGLRNNIYCMAQLLDNSDTAEPTKAGRGASQPPTPTPASDAFQRKLEGCRFLHGYHRFMHSVGRVFSKWGESPNRSRR .
Response: 0.138

Request: If you can, please state the reported IC50 value of OSM-GST mutant Q18A (ligand, Alanine mutant of m4; also called (11)Q18A; 11 Q18A; not shown: Its linker is left out) AAIGSCSKEYRVLLGQLAKQTDLMQDTSRLLDPYIRIQGLDVPKLREHCRERPGAFPSEETLRGLGRRGFLQTLNATLGCVLHRLADLEQRLPKAQDLERSGLNIEDLEKLQMARPNILGLRNNIYCMAQLLDNSDTAEPTKAGRGASQPPTPTPASDAFQRKLEGCRFLHGYHRFMHSVGRVFSKWGESPNRSRR .
Response: 0.395

Request: If you can, please state the reported IC50 value of OSM-GST mutant D22A (ligand, not shown: a dimerising Fc or GST; large carriers; small tags and cut ends, Alanine mutant of m4; also called (15)D22; 15 D22) AAIGSCSKEYRVLLGQLQKQTALMQDTSRLLDPYIRIQGLDVPKLREHCRERPGAFPSEETLRGLGRRGFLQTLNATLGCVLHRLADLEQRLPKAQDLERSGLNIEDLEKLQMARPNILGLRNNIYCMAQLLDNSDTAEPTKAGRGASQPPTPTPASDAFQRKLEGCRFLHGYHRFMHSVGRVFSKWGESPNRSRR .
Response: 0.071

Recorded values, source patent US6706266.
